- Protocol notes: Tmax of aliskiren hemifumarate following 4 week oral dietary dosing of aliskiren hemifumarate at 2000 mg.Kg-1 level in female mouse
- Type: ADME, organism-based
- Assay context: CB6F1-TGrasH2, mouse, in vivo
Measured property: Tmax (min)
# value in min; strip the unit string

Give recorded Tmax. COCCCOc1cc(C[C@@H](C[C@H](N)[C@@H](O)C[C@H](C(=O)NCC(C)(C)C(N)=O)C(C)C)C(C)C)ccc1OC.COCCCOc1cc(C[C@@H](C[C@H](N)[C@@H](O)C[C@H](C(=O)NCC(C)(C)C(N)=O)C(C)C)C(C)C)ccc1OC.O=C(O)/C=C/C(=O)O [ALISKIREN FUMARATE]
30
